# assay-explanation: effects on beta-adrenoceptor cAMP reporter signal – cell-based, secondary assay 2, luminescence, counter-screen for D1 allosteric modulator project, confirmation (AID 647);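 also: isoproterenol raises cAMP through native beta-adrenoceptor Gs so signal bypasses D1; raw luminescence counts from the Envision reader with one value per duplicate well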
# protocol-conditions: HEK293 D1 CRE-luciferase, isoproterenol EC30 counter-screen; at 10 µM; hits give high values
The campaign covered roughly 2,200 compounds. About 1,400 (64%) were called active. So high a share suggests a set chosen from earlier hits. These entries were drawn from the full list.
measure: luminescence

compound	measure	observed-result
CCCn1c(=NC(C)=O)c(C(=O)OCC)cc2c(=O)n3ccccc3nc21	luminescence	2650
c1ccc2c(NCC3CCCO3)nc(-c3ccncc3)nc2c1 (stereo unspecified)	luminescence	3220
CC1CCN(c2oc(-c3ccccc3F)nc2C#N)CC1	luminescence	3380
COc1ccc(CCNC(=O)c2cc3sccc3n2C)cc1OC	luminescence	3110
COc1ccc(S(=O)(=O)Nc2ccc(S(=O)(=O)N3CCCCC3)cc2)cc1OC	luminescence	3220
Cn1c(=O)c2cn(-c3cccc4ccccc34)cc2n(C)c1=O	luminescence	3300
Cn1c(=O)c2[nH]c(NCC3CCCO3)nc2n(-c2ccccc2)c1=O (stereo unspecified)	luminescence	2780
CCNc1nc(NCC)nc(N(C)n2cnnc2)n1	luminescence	3650
O=C(CSc1nnc2scc(-c3ccc(F)cc3)n12)NCc1ccco1	luminescence	2580
Cc1ccc(S(=O)(=O)c2c(N)n(C)c3nc4ccccc4nc23)cc1	luminescence	3490
CCn1c(=N)c(S(=O)(=O)c2ccc(F)cc2)cc2c(=O)n3ccccc3nc21	luminescence	5680

###

# assay-explanation: effects on beta-adrenoceptor cAMP reporter signal – cell-based, secondary assay 2, luminescence, counter-screen for D1 allosteric modulator project, confirmation (AID 647)
# protocol-conditions: HEK293 D1 CRE-luciferase, isoproterenol EC30 counter-screen; at 10 µM; hits give high values
Out of some 2,200 compounds screened, about 1,400 (64%) were called active. The set was probably picked from earlier hits. Not all results are given here.
Each entry gets N if its luminescence stays under 3000, and Y if its luminescence is 3000 or above.

compound	classification
CCCc1nc(-c2ccccc2O)n(-c2ccccc2)n1	Y
CCCCc1c(O)nc2n(c1=O)CCS2	N
CCOc1ccc2[nH]c(=O)c(C(c3nnnn3CCOC)N3CCOCC3)cc2c1 (configuration not stated)	N
COc1ccc(NC(=O)C2CCCN(S(=O)(=O)c3cccc4cccnc34)C2)cc1OC (configuration not stated)	Y
CC(=O)OC(C)C[N+](C)(C)C (configuration not stated)	N
N#CCSc1nc2ccccc2c(=O)n1-c1ccccc1	Y
C/C(=C\C(=O)c1ccccc1)Nc1cccc(O)c1	N
CCOC(=O)c1cc(C)sc1NC(=O)C1CCC1	Y
COc1ccc(-n2c(Cc3cccn3C)nnc2SCC(=O)Nc2cc(C)cc(C)c2)cc1	N
COc1ccc(CCN(C)C(=O)C2CCCN(Cc3ccc(OC)c(OC)c3)C2)cc1OC (configuration not stated)	N
CCOc1ccc2c(c1)cc(CN(C(=O)CC)C1CCCCC1)c1nnnn12	Y

###

# assay-explanation: effects on beta-adrenoceptor cAMP reporter signal – cell-based, secondary assay 2, luminescence, counter-screen for D1 allosteric modulator project, confirmation (AID 647)
# protocol-conditions: HEK293 D1 CRE-luciferase, isoproterenol EC30 counter-screen; at 10 µM
Hit rate of the full screen: of about 2,200 compounds, about 1,400 (64%) were called active.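 Rule for the calls: active = luminescence in either replicate above plate mean of wells with a partly effective reference agonist dose plus 3 SD; inactive = the rest.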 The set was probably picked from earlier hits. A selection follows.
Outcome codes: active, inactive

compound	classification
CCCc1nc(N)nc2c1C(=O)CC(C)(C)C2	active
COc1ccc(-c2cc(C(F)(F)F)nc(S(C)(=O)=O)n2)cc1OC	active
c1coc(-c2nc3nc4ccccc4n3nc2-c2ccco2)c1	active
C=CCSc1nc2c(c(=O)[nH]1)C(C(C)C)C(C#N)=C(N)O2 (stereo unspecified)	active
O=C(NCc1ccccn1)c1ccc2nc(-c3ccco3)c(-c3ccco3)nc2c1	inactive
COc1ccc(-c2n[nH]c(C)c2-c2ccc(OC)c(OC)c2)c(O)c1	active

###

# assay-explanation: effects on beta-adrenoceptor cAMP reporter signal – cell-based, secondary assay 2, luminescence, counter-screen for D1 allosteric modulator project, confirmation (AID 647);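 also: isoproterenol raises cAMP through native beta-adrenoceptor Gs so signal bypasses D1; raw luminescence counts from the Envision reader with one value per duplicate well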
# protocol-conditions: HEK293 D1 CRE-luciferase, isoproterenol EC30 counter-screen; at 10 µM
About 1,400 (64%) of roughly 2,200 compounds were called active.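 Rule for the calls: active = luminescence in either replicate above plate mean of wells with a partly effective reference agonist dose plus 3 SD; inactive = the rest.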 The set was probably picked from earlier hits. These entries were drawn from the full list.
Outcome codes: T (active), F (inactive)

molecule	classification
COc1ncnc2c1N=C1CC(C)(C)CC(N)=C1S2	F
CN(C)c1nc(N)nc(CSc2nnnn2-c2cccc3ccccc23)n1	T
C#CCNc1nc(C(C)C)nc2c1nnn2Cc1ccccc1F	T
CCc1ccc2oc(=O)cc(CN3CCCCC3C)c2c1 (stereo not drawn)	T
CCOc1cccc(-n2nnnc2-c2ccc(OC)cc2)c1	T
CC1(C)Cc2ccccc2-c2nc(CN3CCOCC3)[nH]c(=O)c21	T
N#Cc1c(N)sc2c1CCN(C(=O)OCc1ccccc1)C2	T
CCOc1ccc(-c2nnn(CC(=O)N3CCN(c4ccc(OC)cc4)CC3)n2)cc1OCC	T
COc1cc(-c2nn3c(-c4cccc(C)c4)nnc3s2)cc(OC)c1OC	T
CCSc1ncnc2c(C#N)c3n(c12)CCCCC3	T
CCOc1ccc(Cn2c(SCCCCC#N)nc3c2c(=O)n(C)c(=O)n3C)cc1OCC	T
CCc1cc(=O)oc2cc(OCC(=O)N3CCCc4ccccc43)ccc12	T
c1ccc(COc2nsnc2N2CCOCC2)cc1	F
CCOC(=O)c1c(NC(=O)CSc2nnc(CN3CCOCC3)n2C)sc2c1CCCC2	F
CCCN1Cc2cccc(C(=O)NCc3ccccc3)c2C1=O	T
CCOC(=O)/C=c1\s/c(=C\c2ccccc2OC)c(=O)n1CC(=O)N1CCOCC1	T
COc1nc(NCc2ccc(Cl)cc2)nc(OC)n1	F
CCn1cc(C(=O)NCC2COc3ccccc3O2)c2cc(OC)c(OC)cc2c1=O (stereo not drawn)	F

###

# assay-explanation: effects on beta-adrenoceptor cAMP reporter signal – cell-based, secondary assay 2, luminescence, counter-screen for D1 allosteric modulator project, confirmation (AID 647);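 also: isoproterenol raises cAMP through native beta-adrenoceptor Gs so signal bypasses D1; raw luminescence counts from the Envision reader with one value per duplicate well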
# protocol-conditions: HEK293 D1 CRE-luciferase, isoproterenol EC30 counter-screen; at 10 µM; hits give high values
The whole screen tested about 2,200 compounds, of which about 1,400 (64%) were called active. So high a share suggests a set chosen from earlier hits. The list is a sample of the results.
Threshold check on luminescence: at or above 3000 gives t, strictly below gives f.

compound	classification
CC(C)c1cc(C(=O)O)on1	f
Cc1ccc(C2CC(c3cccc(Br)c3)n3nc(N)nc3N2)cc1 (stereo unspecified)	t
CC(C)n1c(C(O)c2ccccc2)nc2ccccc21 (stereo unspecified)	f
FC(F)(F)c1cc(-c2ccco2)nc(N2CCOCC2)n1	t
O=C(NCc1ccco1)c1cnn2c(C(F)(F)F)cc(-c3ccco3)nc12	t
CCOc1ccccc1C1CC(c2ccccc2)Nc2nc(N)nn21 (stereo unspecified)	t

###

# assay-explanation: effects on beta-adrenoceptor cAMP reporter signal – cell-based, secondary assay 2, luminescence, counter-screen for D1 allosteric modulator project, confirmation (AID 647);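 also: isoproterenol raises cAMP through native beta-adrenoceptor Gs so signal bypasses D1; raw luminescence counts from the Envision reader with one value per duplicate well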
# protocol-conditions: HEK293 D1 CRE-luciferase, isoproterenol EC30 counter-screen; at 10 µM
Out of some 2,200 compounds screened, about 1,400 (64%) were called active.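 Rule for the calls: active = luminescence in either replicate above plate mean of wells with a partly effective reference agonist dose plus 3 SD; inactive = the rest.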 So high a share suggests a set chosen from earlier hits. These entries were drawn from the full list.
Classes used: 1 = active, 0 = inactive

compound	classification
c1ccc(-c2nnc3n2NC(c2ccc4c(c2)OCO4)S3)cc1 (configuration not stated)	1
CC1Oc2ccccc2N(Cc2cccnc2)C1=O (configuration not stated)	1
COc1ccc(Nc2cc(C)nc(-n3nc(C)cc3C)n2)cc1	1
CCCCSc1nc2c(c(=O)n1CC)SC(C)C2 (configuration not stated)	0
COc1ccc(S(=O)(=O)N(C)CC(=O)Nc2ccc3c(c2)OCCO3)cc1OC	1
O=c1cc(-c2ccccc2)nc(N2CCCCC2)[nH]1	0
CCSc1nc(C)nc2c1oc1ccccc12	1
Nc1ccc(S(=O)(=O)NC(=O)c2ccccc2)cc1	0
COC(=O)C1=C(C)NC2=C(C(=O)c3ccccc32)C1c1ccc(-c2ccc(C(=O)O)cc2)o1 (configuration not stated)	0
CC1CCN(c2nc3c(c(=O)[nH]c(=O)n3C)n2CCCc2ccccc2)CC1	1
CCCSc1nc2c(c(=O)[nH]c(=O)n2C)n1CCc1ccccc1	1
CCOC(=O)c1cc2n(c1C)-c1ccccc1C2=O	1
